Target: T1, His-LXRα/FLAG-RXRα heterodimer (ligand binding domains of human LXRα and human RXRα) (human, UniProt Q13133 164-447; P19793 201-462)
T1 construct: Co-expressed in E. coli BL21(DE3) from pET15b-LXRα/FLAG-RXRα and purified together on Ni2+ resin; also called His-LXRα and FLAG-RXRα; heterodimer comprising LXRα and RXRα
T1 sequence 1: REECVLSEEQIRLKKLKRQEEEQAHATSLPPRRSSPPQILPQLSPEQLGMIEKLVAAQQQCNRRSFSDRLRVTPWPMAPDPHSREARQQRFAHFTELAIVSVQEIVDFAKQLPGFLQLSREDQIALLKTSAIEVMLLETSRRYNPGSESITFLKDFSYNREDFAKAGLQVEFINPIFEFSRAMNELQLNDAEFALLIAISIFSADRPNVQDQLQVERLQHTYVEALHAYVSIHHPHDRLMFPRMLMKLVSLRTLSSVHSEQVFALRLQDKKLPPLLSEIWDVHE
T1 sequence 2: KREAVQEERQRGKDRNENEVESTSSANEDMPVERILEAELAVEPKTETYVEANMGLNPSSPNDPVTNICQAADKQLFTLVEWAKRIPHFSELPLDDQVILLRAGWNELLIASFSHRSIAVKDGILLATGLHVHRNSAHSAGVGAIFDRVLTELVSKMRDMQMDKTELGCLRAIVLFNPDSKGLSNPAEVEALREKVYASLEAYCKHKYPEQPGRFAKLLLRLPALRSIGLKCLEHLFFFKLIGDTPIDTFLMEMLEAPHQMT
Assay: FRET (665/620 nm), anti-His tag antibody + streptavidin, biotinylated peptide; with Compound B, relative to DMSO-only control
No end group written: not given here. *: point of attachment. Biotin = O=C1N[C@H]2[C@H](CS[C@H]2CCCCC(=O)*)N1
Measured % of control accompanies every entry in the list below.

Previously resolved entries follow.
Binder	% of control
Biotin-NKDVTLTSPLLVNLLQSDISAGHFGVNNKQ [ASC-2 NR-1 peptide NKDVTLTSPLLVNLLQSDISAGHFGVNNKQ (LXXLL motif on the N-terminal side of ASC-2)]	116 % of control
Biotin-SPAMREAPTSLSQLLDNSGAPNVTIKPPGL (also called ASC2 MR-2) [ASC-2 NR-2 peptide SPAMREAPTSLSQLLDNSGAPNVTIKPPGL (LXXLL motif on the C-terminal side of ASC-2)]	137 % of control

(Q) Tell me the measured % of control of Biotin-HGTSLKEKHKILHRLLQDSSSPVDL [TIF2 peptide HGTSLKEKHKILHRLLQDSSSPVDL (aa 679-703)] , please.
(A) 157 % of control

Cited source for all entries: patent US20090098570A1
